- system_tested: T1, EsCas13d, nuclease-dead (Eubacterium siraeum, UniProt B0MS50, R295A;H300A;R849A;H854A)
- T1 sequence: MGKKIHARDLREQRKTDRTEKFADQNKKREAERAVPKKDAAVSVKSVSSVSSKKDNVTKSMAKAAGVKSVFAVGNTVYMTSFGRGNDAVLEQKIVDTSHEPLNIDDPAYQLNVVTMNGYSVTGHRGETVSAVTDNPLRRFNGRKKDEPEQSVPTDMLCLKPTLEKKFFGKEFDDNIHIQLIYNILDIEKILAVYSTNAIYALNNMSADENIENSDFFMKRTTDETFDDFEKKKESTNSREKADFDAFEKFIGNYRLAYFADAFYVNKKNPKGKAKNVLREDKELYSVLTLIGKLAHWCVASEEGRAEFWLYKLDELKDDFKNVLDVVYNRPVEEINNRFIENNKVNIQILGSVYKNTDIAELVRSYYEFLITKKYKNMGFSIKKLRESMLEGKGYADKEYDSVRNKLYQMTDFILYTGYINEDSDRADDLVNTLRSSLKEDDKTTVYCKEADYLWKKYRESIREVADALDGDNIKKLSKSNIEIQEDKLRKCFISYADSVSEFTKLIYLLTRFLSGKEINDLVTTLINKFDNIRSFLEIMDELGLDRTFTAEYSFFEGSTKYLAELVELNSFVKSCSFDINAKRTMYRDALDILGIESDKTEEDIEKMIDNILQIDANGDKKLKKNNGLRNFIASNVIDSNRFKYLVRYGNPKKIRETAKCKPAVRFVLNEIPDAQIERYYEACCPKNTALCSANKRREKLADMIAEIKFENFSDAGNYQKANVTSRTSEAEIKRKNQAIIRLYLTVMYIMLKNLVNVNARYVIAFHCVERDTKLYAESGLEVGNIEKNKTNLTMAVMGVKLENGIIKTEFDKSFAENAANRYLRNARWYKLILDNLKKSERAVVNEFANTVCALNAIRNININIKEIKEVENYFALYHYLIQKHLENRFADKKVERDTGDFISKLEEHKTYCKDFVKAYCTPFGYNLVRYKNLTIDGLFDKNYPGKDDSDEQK
- experimental_details: crRNA (strand 1, pre-loaded); Mg2+; 40 mM Tris-HCl pH 7.5, 150 mM NaCl, 6 mM MgCl2, 1 mM DTT, 0.1% Tween-20, 0.2 mg/ml BSA; 25 C; 10 min per concentration, then washed
- condition_info: tags: His6-TwinStrep-SUMO cleaved; N-terminal SNAP kept (SNAP-Surface 488); label: 3' end held by stalled T7 RNA polymerase
reported_endpoint: pKd
// returns pKd (minus log10 of molar concentration), number only

Look over these answered cases.
{"binder": "target 1 A1U,U8G (mixed) RNA 1: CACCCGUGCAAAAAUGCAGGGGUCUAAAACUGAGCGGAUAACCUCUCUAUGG RNA 2: GGGAAUGGAUCCACAUCUACGAAUUCGUACCAUAGAGAGGUUAGCCGCUCUCCGAGAUCGGAAGAGCACACGU", "pKd": 7.61}
{"binder": "target 1 G12A,A18U (mixed) RNA 1: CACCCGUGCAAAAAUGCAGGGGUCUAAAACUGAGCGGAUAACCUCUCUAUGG RNA 2: GGGAAUGGAUCCACAUCUACGAAUUCGUACCAUUGAGAGAUUAUCCGCUCACCGAGAUCGGAAGAGCACACGU", "pKd": 7.60}
{"binder": "target 2 MT 5'PFS GUA 3'PFS CGA (mixed) RNA 1: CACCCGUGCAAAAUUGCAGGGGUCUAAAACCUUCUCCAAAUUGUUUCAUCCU RNA 2: GGGAAUGGAUCCACAUCUACGAAUUCGUAAGGAUGAAACAAUUUGGAGAAGCGAAGAUCGGAAGAGCACACGU", "pKd": 8.19}
{"binder": "target 1 insA 3' of 17,insA 3' of 12 (mixed) RNA 1: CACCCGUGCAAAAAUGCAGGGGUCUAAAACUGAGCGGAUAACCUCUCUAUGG RNA 2: GGGAAUGGAUCCACAUCUACGAAUUCGUACCAUAGAAGAGGAUUAUCCGCUCACCGAGAUCGGAAGAGCACACGU", "pKd": 7.38}
{"binder": "target 1 MT 5'PFS UUG 3'PFS ACU (mixed) RNA 1: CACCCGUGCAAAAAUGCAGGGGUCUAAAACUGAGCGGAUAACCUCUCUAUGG RNA 2: GGGAAUGGAUCCACAUCUACGAAUUCUUGCCAUAGAGAGGUUAUCCGCUCAACUAGAUCGGAAGAGCACACGU", "pKd": 7.68}

# pKd lookup, item target 1 insU 3' of 21,insG 3' of 6 (mixed) RNA 1: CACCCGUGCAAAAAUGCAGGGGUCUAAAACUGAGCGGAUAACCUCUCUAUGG RNA 2: GGGAAUGGAUCCACAUCUACGAAUUCGUACCUAUAGAGAGGUUAUCCGGCUCACCGAGAUCGGAAGAGCACACGU
7.55

# pKd lookup, item target 1 G13U,C22U (mixed) RNA 1: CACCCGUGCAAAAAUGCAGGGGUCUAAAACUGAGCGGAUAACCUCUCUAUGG RNA 2: GGGAAUGGAUCCACAUCUACGAAUUCGUAUCAUAGAGAUGUUAUCCGCUCACCGAGAUCGGAAGAGCACACGU
7.09

# pKd lookup, item target 1 G12U,G15A (mixed) RNA 1: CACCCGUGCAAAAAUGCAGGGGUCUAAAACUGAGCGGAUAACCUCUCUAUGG RNA 2: GGGAAUGGAUCCACAUCUACGAAUUCGUACCAUAGAAAGUUUAUCCGCUCACCGAGAUCGGAAGAGCACACGU
7.95
